Test: yeast display, Sf9 membrane polyspecificity reagent, FACS + sequencing; frameworks hold sequencing errors
Measured Quantity: polyreactivity (PSR sort gate)

Use these answered entries as a reference point.
Req: Requested read-out: polyreactivity (PSR sort gate). Entry: QVQLVESGGGLVQAGGSLRLSCAASGRTFYTNAMGWYRQAPGKERELVAAITGDGTSTYYADSVKGRFTISRDNAKNTVYLEMNSLKPEDTAVYYCNATLPDYWPYYYYQGGDDYWGQGTQVTVSS
Resp: low polyreactivity

Req: What value of measured polyreactivity (PSR sort gate) is listed for QVQLVESGGGLVQAGGSLRLSCAASGRIFVRNAMGWYRQAPGKERELVAAISRSGGSTSYADSVKGRFTISRDNAKNTVYLQMNSLKPEDTAVYYCAARYARYQYQYDYWGQGTQVTVSS ?
Resp: high polyreactivity

Req: Consider the sequence QVQVVESGGGLVQAGGSLRLSCAASGRTYRSNAMGWYRQAPGKERELVAAIRTSGGSTYYADSVKGRFTISRDNAKNTVYLQMNSLKPEDTAVYYCNAELRDLEFDYWGQGTQVTVSS and give its measured polyreactivity (PSR sort gate).
Resp: low polyreactivity

Req: Would you kindly share the measured polyreactivity (PSR sort gate) for QVQLVESGGGLVQAGGSLRLSCAASGRIYPKNTMGWYRQERGKERELVAAINWNGGRTYYADSEKGRFTISRDNAKNTVYLPMNSLKPEYTAVYYCAKDGYWDFDYWGQGTQVTVSS ?
Resp: low polyreactivity

Req: Given the entry QVQLVESGGGLVQAGGSLRLSCAASGRILRSYAMGWYRPAPGKERELVAAISWRGGSTYYADSVKGRFTISRDNAKNTVYLQMNSLKPEDTAVYYCAKRSYYPARYDYWGQGTQVTVSS , report its measured polyreactivity (PSR sort gate).
Resp: high polyreactivity

Req: Param item = QVQLVESGGGLVQAGGSLRISCAASGITFYGYDMGWYRQAPGKERELVAAISKSGGSTHYADSVKGRFTISRDNAKNTVYLQMNSLKPEDTAVYYCAAAYWTRLRRMDYWGQGTQVTVSS ; retrieve measured polyreactivity (PSR sort gate).
Resp: high polyreactivity

Next:
Req: Item under review: QVPRVESGGGLVQAGGSLRLSCAASGFTFRFYDMGWYRQARGNERELVAAISWSGTSTYYADSVKGRFTISRDNAKNTVYLQMNSLKPEETAVYYCAADIIGYEFDYWGQGTQVTVSS . Reported polyreactivity (PSR sort gate)?
Resp: high polyreactivity

Req: Please report the recorded polyreactivity (PSR sort gate) for QVQLVESGGGLVQAGGSLRLSCAASGIIFRIYAMGWYRQAPGKEREFVAAISGSGDSTYYADSVKGRFTISRDNAKNTVYLQMNSLKPEDTAVYYCAARAIFRQGDRIYDSWGQGTQVTVSS .
Resp: high polyreactivity

Req: State the recorded polyreactivity (PSR sort gate) for this entry: QVQLVESGGGLVQAGGSLRLSCAASGFTFQHNSMGWYRQAPGKERELVAAISLGGSTNYADSVKGRFTISRDNAKNSVYLQMNSLKPEDSAVYYCAAYDWRVLWGYDYWGQGTQVTVSS
Resp: low polyreactivity

Req: # input sequence: QVQLVESGGGLVQAGGSLRLSCAASGRTFAVYAMGWYRQAPGKERELVAAITLGASRTYYADSVKGRFTISRDNAKNTVYLQMNSLKPEDTAVYYCNAVGRRNVDSSLNDYWGQGTQVTVSS ; wanted: its polyreactivity (PSR sort gate)
Resp: low polyreactivity
